Data credit: paper PMC10065082

Target: T1, wild-type calmodulin (UniProt P0DP23 1-149)
T1 construct: Calmodulin (CaM), recombinant; GenBank M19381.1 (mouse CaM I) is printed only for the transgene of the mice, not for the recombinant protein; also called WT CaM; CaM
Assay: ITC; 0 Ca2+; Microcal VP-ITC, 25°C, 10 mM Mops, 2 mM EGTA, 1 mM TCEP, 150 mM KCl, pH 7; NaV1.5CTD (55-75 uM) or NaV1.6CTD (73-110 uM) peptides and WT CaM or D96V-CaM (5-15 uM); 28 injections; fitted to a model of 1 binding site per monomer
Conditions: both partners purified
pKd: −log10 of the molar value.
PROPERTY_LABEL: pKd

INSERT INTO measurements (binder, observed_measurement) VALUES
  ('RRKQEEVSAVVLQRAYRGHLARRGFICK (Carboxy terminal domain peptide with the IQ motif of human NaV1.6, residues 1891-1918; source: synthetic peptide (LifeTein), at least 90% purity by HPLC) [hNaV1.6CTD peptide (residues 1891-1918 of human NaV1.6)]', 6.61);
